All values here come from patent US20160280743A1.

- Tested on: P. aeruginosa PAO1, PAO1-Pore, Δ3, Δ3-Pore
- MEASUREMENT DESCRIPTION: Fold MIC change between P. aeruginosa strains (OM barrier, efflux)
- Format: cell-based, Pseudomonas aeruginosa
- DETAILS: P. aeruginosa
Readings of Fold MIC change, Efflux, PAO1/Δ3 for the listed compounds

- ENTRY SMILES: "O=C(N[C@H](CO)[C@H](O)c1ccc([N+](=O)[O-])cc1)C(Cl)Cl"
  Fold MIC change, Efflux, PAO1/Δ3: "8 fold"
- ENTRY SMILES: "CCn1cc(C(=O)O)c(=O)c2ccc(C)nc21"
  Fold MIC change, Efflux, PAO1/Δ3: "8 fold"
